method.summary: Anticancer activity against human […] cells assessed as cell growth promotion at 10^-5 M after 48 hrs by SRB assay relative to control
Format: functional
recorded.endpoint: Activity (%)

[
  {
    "test.smiles": "N#Cc1ccc(/C=C/c2nc3ccccc3nc2SCc2nc3ccccc3[nH]2)cc1",
    "unit.symbol": "%",
    "recorded.value": 102
  },
  {
    "test.smiles": "COc1ccc(OC)c(/C=C/c2nc3ccccc3nc2SCc2nc3ccccc3[nH]2)c1",
    "unit.symbol": "%",
    "recorded.value": 77.53
  },
  {
    "test.smiles": "NS(=O)(=O)c1ccc(NC(=O)c2ccccc2NC(=O)c2ccco2)cc1",
    "unit.symbol": "%",
    "recorded.value": 117.5
  },
  {
    "test.smiles": "O=C(Nc1ccccc1C(=O)Nc1ccc(/C=C/c2ccc(Cl)cc2)cc1)c1ccco1",
    "unit.symbol": "%",
    "recorded.value": 120
  },
  {
    "test.smiles": "O=C(Nc1ccccc1C(=O)Nc1ccc(/C=C/C=C/c2ccccc2)cc1)c1ccccc1",
    "unit.symbol": "%",
    "recorded.value": 63.43
  },
  {
    "test.smiles": "COc1cc(/C=C/c2ccc(NC(=O)c3ccccc3NC(=O)c3ccccc3)cc2)ccc1O",
    "unit.symbol": "%",
    "recorded.value": 79.36
  },
  {
    "test.smiles": "Oc1ccc(/C=C/c2nc3ccccc3nc2SCc2nc3ccccc3[nH]2)cc1",
    "unit.symbol": "%",
    "recorded.value": 85.51
  },
  {
    "test.smiles": "CN(C)c1ccc(/C=C/c2nc3ccccc3nc2SCc2nc3ccccc3[nH]2)cc1",
    "unit.symbol": "%",
    "recorded.value": 100
  },
  {
    "test.smiles": "Brc1cccc(/C=C/c2nc3ccccc3nc2SCc2nc3ccccc3[nH]2)c1",
    "unit.symbol": "%",
    "recorded.value": 108
  },
  {
    "test.smiles": "N#Cc1ccc(/C=C/c2ccc(NC(=O)c3ccccc3NC(=O)c3ccco3)cc2)cc1",
    "unit.symbol": "%",
    "recorded.value": 108
  },
  {
    "test.smiles": "Oc1ccccc1/C=C/c1nc2ccccc2nc1SCc1nc2ccccc2[nH]1",
    "unit.symbol": "%",
    "recorded.value": 63.38
  },
  {
    "test.smiles": "O=C(Nc1ccccc1C(=O)Nc1ccc(/C=C/c2ccc(O)cc2)cc1)c1ccccc1",
    "unit.symbol": "%",
    "recorded.value": 53.22
  },
  {
    "test.smiles": "C(=C\\c1nc2ccccc2nc1SCc1nc2ccccc2[nH]1)/c1ccccc1",
    "unit.symbol": "%",
    "recorded.value": 47.73
  },
  {
    "test.smiles": "O=c1c2ccccc2nc(-c2ccco2)n1/N=C/c1ccccc1Cl",
    "unit.symbol": "%",
    "recorded.value": 92.65
  },
  {
    "test.smiles": "O=C(Nc1ccccc1C(=O)Nc1ccc(/C=C/c2ccc(Cl)cc2)cc1)c1ccccc1",
    "unit.symbol": "%",
    "recorded.value": 56.24
  }
]

----------
System: 786-0
method.summary: Anticancer activity against human 786-0 cells assessed as cell growth promotion at 10^-5 M after 48 hrs by SRB assay relative to control
Type: functional

[
  {
    "test.smiles": "O=C(Nc1ccccc1C(=O)Nc1ccc(/C=C/c2ccc(Cl)cc2)cc1)c1ccco1",
    "Activity / %": 103
  },
  {
    "test.smiles": "O=C(Nc1ccccc1C(=O)Nc1ccc(/C=C/C=C/c2ccccc2)cc1)c1ccccc1",
    "Activity / %": 84.31
  },
  {
    "test.smiles": "Brc1cccc(/C=C/c2nc3ccccc3nc2SCc2nc3ccccc3[nH]2)c1",
    "Activity / %": 95.67
  },
  {
    "test.smiles": "C(=C\\c1nc2ccccc2nc1SCc1nc2ccccc2[nH]1)/c1ccccc1",
    "Activity / %": 76.68
  },
  {
    "test.smiles": "O=C(Nc1ccccc1C(=O)Nc1ccc(/C=C/c2ccc(O)cc2)cc1)c1ccccc1",
    "Activity / %": 81.43
  },
  {
    "test.smiles": "COc1cc(/C=C/c2ccc(NC(=O)c3ccccc3NC(=O)c3ccccc3)cc2)ccc1O",
    "Activity / %": 95.86
  },
  {
    "test.smiles": "CN(C)c1ccc(/C=C/c2nc3ccccc3nc2SCc2nc3ccccc3[nH]2)cc1",
    "Activity / %": 90.32
  }
]

----------
Test system: NCI/ADR-RES
method.summary: Anticancer activity against human NCI/ADR-RES cells assessed as cell growth promotion at 10^-5 M after 48 hrs by SRB assay relative to control
Format: functional

[
  {
    "test.smiles": "COc1ccc(OC)c(/C=C/c2nc3ccccc3nc2SCc2nc3ccccc3[nH]2)c1",
    "unit.symbol": "%",
    "Activity": 95.82
  },
  {
    "test.smiles": "CN(C)c1ccc(/C=C/c2nc3ccccc3nc2SCc2nc3ccccc3[nH]2)cc1",
    "unit.symbol": "%",
    "Activity": 106
  },
  {
    "test.smiles": "O=C(Nc1ccccc1C(=O)Nc1ccc(/C=C/c2ccc(Cl)cc2)cc1)c1ccccc1",
    "unit.symbol": "%",
    "Activity": 95.06
  },
  {
    "test.smiles": "COc1cc(/C=C/c2ccc(NC(=O)c3ccccc3NC(=O)c3ccccc3)cc2)ccc1O",
    "unit.symbol": "%",
    "Activity": 117
  },
  {
    "test.smiles": "Brc1cccc(/C=C/c2nc3ccccc3nc2SCc2nc3ccccc3[nH]2)c1",
    "unit.symbol": "%",
    "Activity": 89.75
  },
  {
    "test.smiles": "NS(=O)(=O)c1ccc(NC(=O)c2ccccc2NC(=O)c2ccco2)cc1",
    "unit.symbol": "%",
    "Activity": 111
  },
  {
    "test.smiles": "Oc1ccc(/C=C/c2nc3ccccc3nc2SCc2nc3ccccc3[nH]2)cc1",
    "unit.symbol": "%",
    "Activity": 100
  },
  {
    "test.smiles": "O=C(Nc1ccccc1C(=O)Nc1ccc(/C=C/c2ccc(Cl)cc2)cc1)c1ccco1",
    "unit.symbol": "%",
    "Activity": 104
  },
  {
    "test.smiles": "O=c1c2ccccc2nc(-c2ccco2)n1/N=C/c1ccccc1Cl",
    "unit.symbol": "%",
    "Activity": 12.24
  },
  {
    "test.smiles": "C(=C\\c1nc2ccccc2nc1SCc1nc2ccccc2[nH]1)/c1ccccc1",
    "unit.symbol": "%",
    "Activity": 53.22
  },
  {
    "test.smiles": "O=C(O)c1ccc(-n2c(-c3ccco3)nc3ccccc3c2=O)cc1",
    "unit.symbol": "%",
    "Activity": 102.28
  },
  {
    "test.smiles": "O=C(Nc1ccccc1C(=O)Nc1ccc(/C=C/C=C/c2ccccc2)cc1)c1ccccc1",
    "unit.symbol": "%",
    "Activity": 112
  },
  {
    "test.smiles": "N#Cc1ccc(/C=C/c2nc3ccccc3nc2SCc2nc3ccccc3[nH]2)cc1",
    "unit.symbol": "%",
    "Activity": 103
  },
  {
    "test.smiles": "O=c1c2ccccc2nc(-c2ccco2)n1O",
    "unit.symbol": "%",
    "Activity": 112.3
  },
  {
    "test.smiles": "Oc1ccccc1/C=C/c1nc2ccccc2nc1SCc1nc2ccccc2[nH]1",
    "unit.symbol": "%",
    "Activity": 82.43
  },
  {
    "test.smiles": "O=C(Nc1ccccc1C(=O)Nc1ccc(/C=C/c2ccc(O)cc2)cc1)c1ccccc1",
    "unit.symbol": "%",
    "Activity": 71.73
  },
  {
    "test.smiles": "N#Cc1ccc(/C=C/c2ccc(NC(=O)c3ccccc3NC(=O)c3ccco3)cc2)cc1",
    "unit.symbol": "%",
    "Activity": 109
  }
]

----------
System: SF-295
method.summary: Anticancer activity against human SF295 cells assessed as cell growth promotion at 10^-5 M after 48 hrs by SRB assay relative to control
Assay type: functional
Listed next: entries and their corresponding Activity.

[
  {
    "test.smiles": "O=C(Nc1ccccc1C(=O)Nc1ccc(/C=C/C=C/c2ccccc2)cc1)c1ccccc1",
    "Activity [%]": 58.93
  },
  {
    "test.smiles": "Oc1ccccc1/C=C/c1nc2ccccc2nc1SCc1nc2ccccc2[nH]1",
    "Activity [%]": 93.22
  },
  {
    "test.smiles": "O=C(Nc1ccccc1C(=O)Nc1ccc(/C=C/c2ccc(Cl)cc2)cc1)c1ccccc1",
    "Activity [%]": 52.07
  },
  {
    "test.smiles": "O=c1c2ccccc2nc(-c2ccco2)n1/N=C/c1ccccc1Cl",
    "Activity [%]": 52.12
  },
  {
    "test.smiles": "Brc1cccc(/C=C/c2nc3ccccc3nc2SCc2nc3ccccc3[nH]2)c1",
    "Activity [%]": 100
  },
  {
    "test.smiles": "NS(=O)(=O)c1ccc(NC(=O)c2ccccc2NC(=O)c2ccco2)cc1",
    "Activity [%]": 103.8
  },
  {
    "test.smiles": "O=C(O)c1ccc(-n2c(-c3ccco3)nc3ccccc3c2=O)cc1",
    "Activity [%]": 108.58
  },
  {
    "test.smiles": "O=C(Nc1ccccc1C(=O)Nc1ccc(/C=C/c2ccc(Cl)cc2)cc1)c1ccco1",
    "Activity [%]": 122
  },
  {
    "test.smiles": "CN(C)c1ccc(/C=C/c2nc3ccccc3nc2SCc2nc3ccccc3[nH]2)cc1",
    "Activity [%]": 104
  },
  {
    "test.smiles": "Oc1ccc(/C=C/c2nc3ccccc3nc2SCc2nc3ccccc3[nH]2)cc1",
    "Activity [%]": 82.46
  },
  {
    "test.smiles": "O=c1c2ccccc2nc(-c2ccco2)n1O",
    "Activity [%]": 117.66
  },
  {
    "test.smiles": "N#Cc1ccc(/C=C/c2nc3ccccc3nc2SCc2nc3ccccc3[nH]2)cc1",
    "Activity [%]": 127
  },
  {
    "test.smiles": "COc1cc(/C=C/c2ccc(NC(=O)c3ccccc3NC(=O)c3ccccc3)cc2)ccc1O",
    "Activity [%]": 162
  },
  {
    "test.smiles": "C(=C\\c1nc2ccccc2nc1SCc1nc2ccccc2[nH]1)/c1ccccc1",
    "Activity [%]": 58.32
  },
  {
    "test.smiles": "N#Cc1ccc(/C=C/c2ccc(NC(=O)c3ccccc3NC(=O)c3ccco3)cc2)cc1",
    "Activity [%]": 114
  },
  {
    "test.smiles": "COc1ccc(OC)c(/C=C/c2nc3ccccc3nc2SCc2nc3ccccc3[nH]2)c1",
    "Activity [%]": 110
  },
  {
    "test.smiles": "O=C(Nc1ccccc1C(=O)Nc1ccc(/C=C/c2ccc(O)cc2)cc1)c1ccccc1",
    "Activity [%]": 97.53
  }
]
